Target: Csn5 (Homo sapiens)
ENDPOINT NAME: IC50
Units required after the number.

Q: Which IC50 value belongs to O=C1[C@H]2N(Cc3ccccc3)C(=O)[C@@](Cc3ccccc3)(N1Cc1ccccc1)S2=S (mixture of isomers) ?
A: 0.6 µM

---

Target: AMSH (Homo sapiens, UniProt O95630)
Sequence (O95630 whole entry, species assumed): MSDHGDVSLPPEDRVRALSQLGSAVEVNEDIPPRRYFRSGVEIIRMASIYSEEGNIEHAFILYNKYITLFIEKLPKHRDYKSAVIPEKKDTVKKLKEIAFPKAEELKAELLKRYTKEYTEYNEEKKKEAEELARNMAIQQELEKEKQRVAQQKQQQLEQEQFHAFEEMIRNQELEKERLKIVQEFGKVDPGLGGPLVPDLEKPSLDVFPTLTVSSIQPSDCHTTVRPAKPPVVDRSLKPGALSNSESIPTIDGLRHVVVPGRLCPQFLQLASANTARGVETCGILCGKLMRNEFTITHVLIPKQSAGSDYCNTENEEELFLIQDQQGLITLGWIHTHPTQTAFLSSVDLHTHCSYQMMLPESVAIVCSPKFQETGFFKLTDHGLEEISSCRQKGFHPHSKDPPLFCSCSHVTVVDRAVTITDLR
ENDPOINT NAME: IC50
Units required after the number.

Q: API: value(readout=IC50, system=AMSH (Homo sapiens, UniProt O95630)) for record O=C1[C@H]2N(Cc3ccccc3)C(=O)[C@@](Cc3ccccc3)(N1Cc1ccccc1)S2=S (mixture of isomers)
A: 900 nM
